The reported numbers originate from the supplement of paper PMC9170038.

Hi there, I'd appreciate the recorded apparent KD of K4 kissing-loop reporter for every entry that follows.
# Tested on: K4 kissing-loop RNA reporter;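 further: bound reporter read as fluorescence of individual clusters on recovered sequencing chips by microscopy, with normalized cluster intensities fitted with a binding model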
# method-description: apparent KD of K4 kissing-loop reporter; higher = weaker reporter binding
# condition-notes: Eterna round: R107; input ligand: none
Answers are plain numbers, in nM.

- chain: "UUUAUUAAGACGGCCGCCACUGAUUCAUAGUGAUGUUAUGAUAUAAUUUUAGUGAUUUUGAUUAGCAGGACCGGGUCAAUUAUUA [JR_ExcTryptoB_Sub016]"
  apparent KD of K4 kissing-loop reporter [nM]: 196
- chain: "UGUAUAUGAUGUGAUACCAGUGAAGAGCCAGUGAUGUUGGUAGAACUGGUAUAUAAAUAACACCCUUGGCAGCACAAUCACGUAC [whbob_Ex_Theo_B_sa98]"
  apparent KD of K4 kissing-loop reporter [nM]: 202

Okay, now this sequence:
Kindly note: K4 kissing-loop RNA reporter, ACACUUUACGUAGGAUAUGCGACGAGUGAUGUUCGUCAGGCGGCCUUAGAUUAAACAAGCCGCCUAGCAGAAGGACGGGCAGUGU [Qumatiri] , apparent KD of K4 kissing-loop reporter value reported: 201

====

Hi there, I'd appreciate the recorded apparent KD of MS2 coat protein for every entry that follows.
# Tested on: MS2 coat protein
# method-description: apparent KD of MS2 coat protein; designed switch direction (-1 OFF switch, 1 ON switch): -1; higher = weaker reporter binding
# condition-notes: input ligand: microRNA oligo, concentration not stated

Kindly give each listed record's apparent KD of MS2 coat protein.
1. ACAUGUGUUGUAGGAUAUAGGACACAUGAGGAUCACCCAUGUGGUUUCAUGUCUAACCAAGCGUCCUAGAAGGACGGCAACAUG [Ex NG2 #27] (Eterna round: R96, puzzle: Exclusion NG 2)
2. CUCGUAUUAUACAUGAGGAUCACCCAUGUGGUCACCACUCACGAGGAUAUCCCGGGAAACCGAACGGAGAAGGUGUAGAGUCAU [Eternabot solution 44] (Eterna round: R96, puzzle: Exclusion NG 3)
3. UCGGCGCGAGGAUAUGCGGCUGCUGCUUCGGGCCGUGGCGUACAUGAGGAUCACCCAUGUAGAAGGCGCGCCGC [Apr-15 SS2-40] (Eterna round: R96, puzzle: Exclusion 2)

Result:
1: 19.4 nM; 2: 163 nM; 3: 10.4 nM

====

Hi there, I'd appreciate the recorded apparent KD of MS2 coat protein for every entry that follows.
# System: MS2 coat protein
# method-description: apparent KD of MS2 coat protein; designed switch direction (-1 OFF switch, 1 ON switch): -1; higher = weaker reporter binding
# condition-notes: Eterna round: R95; input ligand: microRNA oligo, concentration not stated
Give bare numbers, in nM.

# annotated cases, reported apparent KD of MS2 coat protein shown
- chain: "GGUGGACAUGAGGAUCACCCAUGUGAGGAUAUCGGCUGGUACGUGUUGGCUGGCAUCUCGAGAAGGCACAUAGG [Exclusion 1 V60] (puzzle: Exclusion 1)"
  apparent KD of MS2 coat protein (nM): 102
- chain: "AGGCGUGCUGAGGAUAUACUACCGGUUGCGAUAGUAGAAGGUAGCACAUGAGGAUCACCCAUGUGGUCAGAUGC [Bequte] (puzzle: Exclusion 6)"
  apparent KD of MS2 coat protein (nM): 19.1
- chain: "AUAAAUAAGGAGGAUAUCGUAUCGGAAACGAUACGAGAAGGUCUAACAUGAGGAUCACCCAUGUUCCUCAAUAA [Mat - Exclusion 6 - Eli Mod - D47] (puzzle: Exclusion 6)"
  apparent KD of MS2 coat protein (nM): 34.5
- chain: "GGUAGAGAGCAGGAUAUCUUGGGUAAGUAUCGUAGAGAAGGGCUCACAUGAGGAUCACCCAUGUGGUCCUAGAU [JL Dibiri mod 04] (puzzle: Exclusion 6)"
  apparent KD of MS2 coat protein (nM): 11.8
- chain: "UUUAAUUUUUUUUUUUUACAAGCUUUUUGCUCGUCUUAUACAUGAGGAUCACCCAUGUGGGUAGAGAGUAAAUUAUC [JMF 59] (puzzle: Sensor v3, turn-off variant 2)"
  apparent KD of MS2 coat protein (nM): 80.6

Kindly give each listed record's apparent KD of MS2 coat protein.
1. GAGUGACAUGAGGAUCACCCAUGUGAGGAUAUCCGAUGGACCAAAUUAACAAUAGAAGGGAGAAGGCGCAUAAA [Exclusion 1 V8] (puzzle: Exclusion 1)
2. AUUGAUAUUGAGGAUAUGCUUUUAUUUGAACAAGCAGAAGGCGAUACAUGAGGAUCACCCAUGUUUAUGGAAGU [JR_E6_Sub087] (puzzle: Exclusion 6)
3. AAUCUGUGAGGAUAUGGUGAGUAGUGCCUGAGCGCUGCUCACCAGAAGGCACAUGAGGAUCACCCAUGUAUGAC [Mat - Exclusion 4 - Mod of JL - D2] (puzzle: Exclusion 4)
4. CGUGCGUAUGUGAGGAUAUGCUGGUCCUUGGAUCGGCAGAAGGCACAUGAGGAUCACCCAUGUGGUGUCGUUCU [salish99_Bmod_ex4_092] (puzzle: Brourd's mod of Exclusion 4)
5. GGUGCGUAUGUGAGGAUAUGCUGGUCCUUGGAUCAGCAGAAGGCACAUGAGGAUCACCCAUGUGGUGUCGUACA [salish99_Bmod_Ex4_014] (puzzle: Brourd's mod of Exclusion 4)
6. ACGAGGUCAGGAUAUACGGAGAGAGGGAGUUGGUUAGGGUAACAUGAGGAUCACCCAUGUAGAAGGGACUAGGG [JR_Exclu2_Sub080] (puzzle: Exclusion 2)
7. AAAAACAGAGGAUAUGCACGCCGACCCGGGCGGGAAGUCGGACAUGAGGAUCACCCAUGUAGAAGGCUGAAAAA [Exclss2-VI] (puzzle: Exclusion 2)

Result:
[152, 37.6, 27.7, 129, 255, 39.9, 10.5]

====

# Test system: MS2 coat protein
# method-description: apparent KD of MS2 coat protein; designed switch direction (-1 OFF switch, 1 ON switch): -1; higher = weaker reporter binding
# condition-notes: input ligand: FMN 200 uM
apparent KD of MS2 coat protein vs 40 nM: at or above is MET, below is NOT MET.

Request: Check this sequence for apparent KD of MS2 coat protein at or above 40 nM: GGAGGAGAGGUUAGGAUAUCCUCCUCGAAAGAGGAGGAGAAGGAACAUGAGGAUCACCCAUGUAAGGAAGGAGG [AK-MS2ROC-r4-Bmoexclusion4-10] (Eterna round: R97, puzzle: Brourd's mod of Exclusion 4)
Result: NOT MET

Request: Check this sequence for apparent KD of MS2 coat protein at or above 40 nM: AGAGAGAUAGGAUAUACGUGGUUUUCUCAGGUCUAAGUUCAACAUGAGGAUCACCCAUGUAGAAGGAUCAAAAG [EX2 C.14] (Eterna round: R97, puzzle: Exclusion 2)
Result: MET

Request: Check this sequence for apparent KD of MS2 coat protein at or above 40 nM: GGCACACAUGAGGAUCACCCAUGUGAGGAUAUGGUGCGAUCGUCGAUAGACGAUAGCACCAGAAGGCACAUGCC [Mat - Exclusion 1 - Eli Mod - D5] (Eterna round: R97, puzzle: Exclusion 1)
Result: NOT MET

Request: Check this sequence for apparent KD of MS2 coat protein at or above 40 nM: ACAUGUAUUGCAGGAUAUGGGACACAUGAGGAUCACCCAUGUGACCACAUGUAAUGCCACGGGUCUCAGAAGGGUAUGUACAUG [Ex NG2 #43] (Eterna round: R96, puzzle: Exclusion NG 2)
Result: MET

Request: Check this sequence for apparent KD of MS2 coat protein at or above 40 nM: AUAAUGUGAGGAUAUAUGCAUCACGGUGAUACACCGUGAUGAUAGAAGGUACAUGAGGAUCACCCAUGUAGGGC [Mod of Anonveat 16 - Jieux - Exclusion 4] (Eterna round: R97, puzzle: Exclusion 4)
Result: MET

Request: Check this sequence for apparent KD of MS2 coat protein at or above 40 nM: UUAGUAUUGCAAGGAUAUGUUUAUGUUUAUUUUCCUCUUACAUGAGGAUCACCCAUGUUUAACUUACAGAAGGUGCUAUGAUUU [JR_ExcNG2_Sub032] (Eterna round: R96, puzzle: Exclusion NG 2)
Result: MET

Request: Check this sequence for apparent KD of MS2 coat protein at or above 40 nM: AUUAUGUGAGGAUAUUAGUAGUAAAUAAAUAAAAUUAUUACUGAGAAGGCACAUGAGGAUCACCCAUGUUCCUU [Salish 062 v6] (Eterna round: R97, puzzle: Exclusion 4)
Result: MET

Request: Check this sequence for apparent KD of MS2 coat protein at or above 40 nM: GAGAUACAUGAGGAUCACCCAUGUGAGGAUAUGAGCACGCCGGUGACGGUGAUAAGAAUCAGAAGGCACAAUGG [Mat - Exclusion 1 - JL Mod - D31] (Eterna round: R97, puzzle: Exclusion 1)
Result: MET

Request: Check this sequence for apparent KD of MS2 coat protein at or above 40 nM: GCAGAGCAAGGAUAUACAUGAGGAUCACCCAUGUAAUCUGAAAGGAUUGUAUGGCUCUGUAGAAGGUGCGAAAA [Ederxein] (Eterna round: R97, puzzle: Exclusion 3)
Result: MET
